experimentalSystem: human liver microsomal cytochrome P450 2E1 (CYP2E1) (Homo sapiens, UniProt P05181)
protocolDescription: Human liver microsomal CYP2E1, chlorzoxazone 6-hydroxylation;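 further: chlorzoxazone added as substrate, 6-hydroxychlorzoxazone formation quantified by LC/MS/MS after 30 min at 37 °C with NADP+ regenerating system, compared against solvent control without test sample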
condition: Table 6; minimum tested concentration (mg/L) × volume of human liver and intestine (3 L)
// NB: equality with 20 mg counts as condition not met; only Minimum Effective Dose strictly below is condition met

Please indicate whether the reported Minimum Effective Dose of CC(Cc1ccc(O)c(O)c1)C(C)Cc1ccc(O)c(O)c1 (stereo not drawn) [Nordihydroguaiaretic acid] is strictly below 20 mg.
condition met

Strictly below 20 mg in Minimum Effective Dose? O=c1cc(-c2ccc(O)cc2)oc2cc(O)c([C@@H]3O[C@H](CO)[C@@H](O)[C@H](O)[C@H]3O)c(O)c12 [Isovitexin]
condition not met

Criterion: Minimum Effective Dose strictly below 20 mg. Is it met by C[C@@H]1O[C@@H](OC[C@H]2O[C@@H](Oc3c(-c4ccc(O)c(O)c4)oc4cc(O)cc(O)c4c3=O)[C@H](O)[C@@H](O)[C@@H]2O)[C@H](O)[C@H](O)[C@H]1O [Rutin] ?
condition not met

Quick check: does C=CC(=C)CCC=C(C)C [β-Myrcene] have Minimum Effective Dose under 20 mg?
condition met

Field: below-cutoff. Rule: recorded Minimum Effective Dose strictly less than 20 mg. Subject: O=c1c(O)c(-c2ccc(O)cc2O)oc2cc(O)cc(O)c12 [Morin]
condition met

Please indicate whether the reported Minimum Effective Dose of O=c1cc(-c2ccc(O)cc2)oc2c([C@@H]3O[C@H](CO)[C@@H](O)[C@H](O)[C@H]3O)c(O)cc(O)c12 [Vitexin] is strictly below 20 mg.
condition not met

For this molecule, is Minimum Effective Dose lower than 20 mg? COc1ccc(-c2oc3cc(O)cc(O)c3c(=O)c2O)cc1O [Tamarixetin]
condition met

Report whether reported Minimum Effective Dose is lower than 20 mg (strictly) for O=C1C[C@@H](c2ccc(O)cc2)Oc2cc(O)cc(O)c21 [Narigenin]
condition met

Please indicate whether the reported Minimum Effective Dose of CCCCCCCCCCCCCC(=O)OCC [Ethyl Myristate] is strictly below 20 mg.
condition met

I'd appreciate it if you could check whether COc1ccc([C@@H]2CC(=O)c3c(O)cc(O)cc3O2)cc1O [Hesperetin] has Minimum Effective Dose smaller than 20 mg.
condition met

Does the reported Minimum Effective Dose of O=c1cc(-c2ccc(O)c(O)c2)oc2cc(O)cc(O)c12 [Luteolin] stay below 20 mg?
condition met

Lab log: compare recorded Minimum Effective Dose with 20 mg; is it strictly lower for O=c1c(-c2ccc(O)cc2)coc2cc(O)ccc12 [Daidzein] ?
condition met

Determine if O=C(CCc1ccc(O)cc1)c1c(O)cc(O)cc1O [Phloretin] shows Minimum Effective Dose strictly lower than 20 mg.
condition met

Minimum Effective Dose under 20 mg? Item: O=c1cc(-c2ccc(O)cc2)oc2cc(O)cc(O)c12 [Apigenin]
condition met

Problem: For the molecule COc1cc(-c2oc3cc(O)cc(O)c3c(=O)c2O)ccc1O [Isorhamnetin] , is Minimum Effective Dose under 20 mg?
condition met

----------
Tested on: amidase
protocolDescription: Mouse liver microsomal amidase, isoniazid to isonicotinic acid
Assay type: biochemical
condition: 1 uM
reportedEndpoint: Amidase inhibition (%)
Give just the number in %; leave the unit off.

Output measured Amidase inhibition for this item: CC(C)[C@@H](C)/C=C/[C@@H](C)[C@H]1CC[C@H]2C3=CC=C4C[C@@H](O)CC[C@]4(C)[C@H]3CC[C@]12C [Ergosterol]
4.3

Tell me measured Amidase inhibition for O=C(O)/C=C/c1ccccc1 [trans-Cinnamic acid] please.
−11.9

Please give the documented Amidase inhibition of O=c1c(-c2ccc(O)cc2)coc2cc(O)cc(O)c12 [Genistein]
−2.1

Indicate its recorded Amidase inhibition; the compound in question is C[C@@H]1O[C@@H](OC[C@H]2O[C@@H](Oc3cc(O)c4c(c3)O[C@H](c3ccc(O)c(O)c3)CC4=O)[C@H](O)[C@@H](O)[C@@H]2O)[C@H](O)[C@H](O)[C@H]1O [Eriocitrin]
−16.1

Tell me Amidase inhibition reported for O=c1c(O)c(-c2ccccc2)oc2cc(O)cc(O)c12 [Galangin]
9.6

Give the reported value of Amidase inhibition for this record: O=C1C[C@@H](c2ccc(O[C@@H]3O[C@H](CO)[C@@H](O)[C@H](O)[C@H]3O)cc2)Oc2cc(O)ccc21 [Liquiritin]
2.5

State its Amidase inhibition: O=C(CCc1ccc(O)cc1)c1c(O)cc(O)cc1O [Phloretin]
16.5

Output measured Amidase inhibition for this item: COc1cc(-c2cc(=O)c3c(O)cc(O)cc3o2)ccc1O [Chrysoeriol]
7.7

For the compound O=C(/C=C/c1ccc(O)cc1)c1ccc(O)cc1O [Isoliquritigenin] , give its reported Amidase inhibition.
−18.7

Identify measured Amidase inhibition associated with CC12CCC(CC1)C(C)(C)O2 [Cineole]
−16.5

Answer with reported Amidase inhibition of O=C1C[C@@H](c2ccc(O)c(O)c2)Oc2cc(O)cc(O)c21 [Eriodictyol]
9.0

Answer with the recorded Amidase inhibition for the compound listed here: O=C(O)c1cc(O)c(O)c(O)c1 [gallic acid]
12.0

Give Amidase inhibition for COc1ccc(-c2oc3cc(O)cc(O)c3c(=O)c2O)cc1O [Tamarixetin]
3.5

Hello, please tell me recorded Amidase inhibition for this one: C=C(C)C1CC=C(C)CC1 (single isomer, unassigned; (+)) [(+)-Limonene]
5.1

Look up Amidase inhibition of O=c1cc(-c2ccccc2)oc2c1ccc1ccccc12 [α-Naphthoflavone] and report it.
7.3

Given O=c1c(O)c(-c2cc(O)c(O)c(O)c2)oc2cc(O)cc(O)c12 [Myricetin] , respond with its Amidase inhibition.
8.0

Answer with reported Amidase inhibition of O=c1c(-c2ccc(O)cc2)coc2cc(O[C@@H]3O[C@H](CO)[C@@H](O)[C@H](O)[C@H]3O)ccc12 [Daidzin]
3.6

For O=c1c(-c2ccc(O)cc2)coc2cc(O)ccc12 [Daidzein] , write its Amidase inhibition.
−12.1

Give recorded Amidase inhibition. O=c1cc(-c2ccc(O)c(O)c2)oc2cc(O)c([C@@H]3O[C@H](CO)[C@@H](O)[C@H](O)[C@H]3O)c(O)c12 [Homoorientin]
7.4

Please give the documented Amidase inhibition of Oc1cc(O)c2c(c1)O[C@H](c1cc(O)c(O)c(O)c1)[C@H](O)C2 [(−)-Epigallocatechin]
−1.2

Please supply the value of reported Amidase inhibition for the item O=C1c2c(O)cc(O)cc2O[C@H](c2ccc(O)c(O)c2)[C@H]1O [(+)-Taxifolin]
36.8

Tell me measured Amidase inhibition for CC1(C)CC[C@]2(C(=O)O)CC[C@]3(C)C(=CC[C@@H]4[C@@]5(C)CC[C@H](O)C(C)(C)[C@@H]5CC[C@]43C)[C@@H]2C1 [Oleanolic Acid] please.
20.3

Tell me measured Amidase inhibition for COc1ccc(-c2cc(=O)c3c(O)cc(O)c(-c4cc(-c5cc(=O)c6c(O)cc(OC)cc6o5)ccc4OC)c3o2)cc1 [Sciadopitysin] please.
10.3

Fill in Amidase inhibition for record Oc1cc(O)c2c(c1)O[C@H](c1ccc(O)c(O)c1)[C@H](O)C2 [(−)-Epicatechin]
−25.8

Consider the compound O=c1c(O)c(-c2ccc(O)c(O)c2)oc2cc(O)ccc12 [Fisetin] . State its measured Amidase inhibition.
−9.2

Fill in reported Amidase inhibition for this entry: O=c1ccc2ccc(O)cc2o1 [Umbelliferone]
24.1

Read the entry COc1ccc([C@@H]2CC(=O)c3c(O)cc(O[C@@H]4O[C@H](CO)[C@@H](O)[C@H](O)[C@H]4O[C@@H]4O[C@@H](C)[C@H](O)[C@@H](O)[C@H]4O)cc3O2)cc1 [Poncirin] and write its reported Amidase inhibition.
10.8

Supply recorded Amidase inhibition for COc1c(O)cc2oc(Oc3ccc(O)cc3)cc(=O)c2c1O [Capillarisin] here.
−4.1

----------
experimentalSystem: cytochrome P450 2E1 (CYP2E1) (Homo sapiens, UniProt P05181)
Sequence (P05181 whole entry): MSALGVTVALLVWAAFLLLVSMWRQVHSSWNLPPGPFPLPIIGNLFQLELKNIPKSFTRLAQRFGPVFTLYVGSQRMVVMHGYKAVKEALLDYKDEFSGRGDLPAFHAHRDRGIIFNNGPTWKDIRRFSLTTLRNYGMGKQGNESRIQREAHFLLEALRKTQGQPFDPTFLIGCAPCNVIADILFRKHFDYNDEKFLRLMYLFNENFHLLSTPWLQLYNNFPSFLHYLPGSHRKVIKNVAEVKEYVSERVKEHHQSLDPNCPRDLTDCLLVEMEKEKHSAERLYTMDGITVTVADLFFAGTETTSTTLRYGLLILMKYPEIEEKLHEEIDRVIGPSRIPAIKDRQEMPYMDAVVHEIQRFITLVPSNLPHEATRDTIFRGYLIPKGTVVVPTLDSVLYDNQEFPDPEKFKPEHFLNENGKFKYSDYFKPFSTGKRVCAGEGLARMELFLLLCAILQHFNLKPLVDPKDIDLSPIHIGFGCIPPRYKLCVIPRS
protocolDescription: CYP2E1 High Throughput Inhibitor Screening Kit, cDNA synthesized microsomal CYP2E1 (MFC to HFC)
condition: Table 3; minimum tested concentration (mg/L) × volume of human liver and intestine (3L)
reportedEndpoint: Minimum Effective Dose (mg)
Please state the figure in mg; there is no need to write the unit.

Lab note: cytochrome P450 2E1 (CYP2E1) (Homo sapiens, UniProt P05181) assay, enter Minimum Effective Dose for CCCCCCCCCCCC1=C(O)C(=O)C=C(O)C1=O here
16

Provide the reported Minimum Effective Dose (system: cytochrome P450 2E1 (CYP2E1) (Homo sapiens, UniProt P05181)) for COc1c(O)cc2oc(Oc3ccc(O)cc3)cc(=O)c2c1O
17

Please look at O=c1c(-c2ccc(O)cc2)coc2c([C@@H]3O[C@H](CO)[C@@H](O)[C@H](O)[C@H]3O)c(O)ccc12 and tell me its recorded Minimum Effective Dose on cytochrome P450 2E1 (CYP2E1) (Homo sapiens, UniProt P05181).
23

Write down measured Minimum Effective Dose (cytochrome P450 2E1 (CYP2E1) (Homo sapiens, UniProt P05181)) for this compound. O=c1c(O)c(-c2ccc(O)cc2)oc2cc(O)cc(O)c12
16

Give Minimum Effective Dose; test system cytochrome P450 2E1 (CYP2E1) (Homo sapiens, UniProt P05181); compound COc1ccc([C@@H]2CC(=O)c3c(O)cc(O)cc3O2)cc1O
33

Answer briefly: Minimum Effective Dose recorded on cytochrome P450 2E1 (CYP2E1) (Homo sapiens, UniProt P05181) for O=C1C[C@@H](c2ccc(O)cc2)Oc2cc(O)cc(O)c21
9
